koff values, listed per item
Molecular target: T1, human PD-L1-Fc (SinoBiological) (human, UniProt Q9NZQ7 19-239)
T1 construct: Bought; not shown: Fc of a bought fusion protein
T1 sequence (Q9NZQ7 19-239 limits assumed): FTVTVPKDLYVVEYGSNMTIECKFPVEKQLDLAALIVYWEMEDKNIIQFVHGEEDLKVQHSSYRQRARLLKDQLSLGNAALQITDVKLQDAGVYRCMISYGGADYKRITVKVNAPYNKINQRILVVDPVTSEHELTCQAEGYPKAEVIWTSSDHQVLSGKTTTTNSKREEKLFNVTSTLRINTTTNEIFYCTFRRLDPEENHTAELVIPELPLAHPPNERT
Assay: BLI (Octet RED96), VHH on Penta-HIS sensor, human PD-L1-Fc in solution

| binder | koff |
| --- | --- |
| 2LIG27 VHH-(His)6 (pHEN6C-PelB-PD-L1 VHH-(His)6) (VHH) VHH: QVQLQESGGGVVQAGGSLRLSCTASGTIFSINRMDWFRQAPGKQRELVALITSDGTPTYADSAKGRFTISRDNTKKTVSLQMNSLKPEDTAVYYCHVSSGVYNYWGQGTQVTVSS | 0.0035 s⁻¹ |
| 3LIG8 VHH-(His)6 (pHEN6C-PelB-PD-L1 VHH-(His)6) (VHH) VHH: QVQLQESGGGLVQPGGSLRLSCTASGTIFSINRMDWFRQAPGKQRELVALITSDGTPTYADSAKGRFTISRDNTKKTVSLQMNSLKPEDTAVYYCHVSSGVYNYWGQGTQVTVSS | 0.00419 s⁻¹ |
| 2LIG3 VHH-(His)6 (pHEN6C-PelB-PD-L1 VHH-(His)6) (VHH) VHH: QVQLQESGGGLVQAGGSLRLSCTASGTIFSINHMDWFRQAPGKQRELVALITSDGFPTYADSAKGRFTISRDNTKKTVSLQMNSLKPEDTAVYYCHVSSGVYNYWGQGTQVTVSS | 0.000448 s⁻¹ |
| 2LIG97 VHH-(His)6 (pHEN6C-PelB-PD-L1 VHH-(His)6) (VHH) VHH: QVQLQESGGGLVQAGESLRLSCTASGTIFSINRMDWFRQAPGKQRELVALITSDGTPTYADSAKGRFTISRDNTKKTVSLQMNSLKPEDTAVYYCHVSSGVYNYWGQGTQVTVSS | 0.00198 s⁻¹ |
